- CONDITION_SET: 318.15 K; 101.33 kPa; Liquid; Vibrating tube method
ENDPOINT_LABEL: mass density (kg/m3)

CCCCCCCC/C=C\CCCCCCCC(=O)[O-].CCCCCCCC[N+](CCCCCCCC)(CCCCCCCC)CCCCCCCC [tetraoctylammonium oleate]: 863.1
CCCCCCCC/C=C\CCCCCCCC(=O)[O-].CCCCCC[N+](CCCCCC)(CCCCCC)CCCCCC [tetrahexylammonium oleate]: 874.8
CCCCC(CC)CCC(=O)[O-].CCCCCCCC[N+](C)(CCCCCCCC)CCCCCCCC [methyltrioctylammonium 4-ethyloctanoate]: 877.9
CCCCCCCC/C=C\CCCCCCCC(=O)[O-].CCCCCCCC[N+](C)(CCCCCCCC)CCCCCCCC [methyltrioctylammonium oleate]: 875.5
